# Tested on: SF-295
# protocol: NCI tumour cell line growth inhibition, 48 h
The source made the active and inactive calls. No stated cut-off is given here; in the data, active = GI50 up to about 1.1 µM and inactive = higher.
Allowed answers: true (1) (active), false (0) (inactive)

input: Test call, this molecule: CC1=CC(=O)/C(=C/n2c(=S)[nH]c3cc(C)ccc32)C(=O)O1
output: false (0)

input: Test call, this molecule: CCOC(=O)C(=O)/C(=C/NC(=S)Nc1ccc(Cl)c(Cl)c1)C(=O)OCC
output: false (0)

input: Test call, this molecule: Nc1ncnc2c1ccn2C1OC2COP(=O)(O)OC2C1O (configuration not stated)
output: true (1)

input: Test call, this molecule: CN(C)CC/C(=N\Nc1c(F)c(F)c(F)c(F)c1F)c1ccccc1
output: false (0)

input: Test call, this molecule: C[C@]12CC[C@@H]3c4ccc(OS(N)(=O)=O)cc4CC[C@H]3[C@@H]1CCC2=O [EMATE]
output: false (0)

input: Test call, this molecule: COc1ccc2cc3[n+](cc2c1O)CCc1cc2c(cc1-3)OCO2 [BERBERRUBINE CHLORIDE]
output: false (0)

input: Test call, this molecule: O=C1C=CC(=O)c2c1cc([N+](=O)[O-])c1ccoc21
output: false (0)

input: Test call, this molecule: C/C(=N\NC(=S)N1CCCCCC1)c1ccccn1
output: true (1)

input: Test call, this molecule: COC(=O)c1cnn2c1ccc1ccccc12
output: false (0)

input: Test call, this molecule: CN(C)c1nc(N(C)C)nc(N(C)CN(C)c2nc(N(C)C)nc(N(C)C)n2)n1
output: false (0)

input: Test call, this molecule: COC(=O)CCc1ccc2c(c1)CCC2
output: false (0)

input: Test call, this molecule: CN1C(=O)c2cccc3c([N+](=O)[O-])ccc(c23)C1=O
output: false (0)

input: Test call, this molecule: COc1cc2c(c(O)c1OC)C(O)C1CCC(=O)N1C2c1cccc2ccccc12 (configuration not stated)
output: false (0)

input: Test call, this molecule: COC(=O)Nc1nc2cc(C(=O)c3ccc[nH]3)ccc2[nH]1
output: true (1)

input: Test call, this molecule: Cc1cc(C)c2c(c1)CC1(Cc3c(C)cc(C)cc3C1=O)C2=O (configuration not stated)
output: false (0)

input: Test call, this molecule: Cc1ccc(/C=C2/N/C(=N\N=C/C(O)C(O)C(O)CO)NC2=O)cc1 (configuration not stated)
output: false (0)

input: Test call, this molecule: C[N+]1(C)C/C(=C\c2ccc(O)cc2)C(=O)/C(=C/c2ccc(O)cc2)C1
output: false (0)

input: Test call, this molecule: Cc1ccc(NC(=O)CCc2nnc(N)o2)cc1
output: false (0)

input: Test call, this molecule: O=C1OC(C2Cc3ccc4c(c3C2=O)CCCC4)c2ccccc21 (configuration not stated)
output: false (0)

input: Test call, this molecule: CCOC(=O)c1cccc([N+](=O)[O-])c1N
output: false (0)

input: Test call, this molecule: COc1ccc2c3c1O[C@H]1C[C@@H](O)C=C[C@@]31CCN(C)C2 [GALANTAMINE]
output: false (0)

input: Test call, this molecule: CCN(CC)CCOCC1CCCN2CCCCC12 (configuration not stated)
output: false (0)

input: Test call, this molecule: COc1cc2c(cc1OC)C1C=NC(C2)c2cc(OC)c(OC)cc21 (configuration not stated)
output: false (0)

input: Test call, this molecule: CCOC(=O)NC(Nc1ccc([N+](=O)[O-])cc1)(C(F)(F)F)C(F)(F)F
output: false (0)

input: Test call, this molecule: CC(=O)O[C@H]1C[C@H]2[C@@H]([C@H](OC(C)=O)C[C@@H]3CC4(CC[C@@]32C)OOC2(CCCCC2)OO4)[C@@H]2CC[C@H]([C@H](C)CCC(N)=O)[C@@]12C
output: false (0)

input: Test call, this molecule: Cc1ccc2nc3c(C(=O)NCCN(C)C)cccc3cc2c1
output: false (0)

input: Test call, this molecule: C=CCNC(=S)N/C=C(\C(=O)OCC)C(=O)C(=O)OCC
output: false (0)

input: Test call, this molecule: CN1CCN(c2ccc3[nH]c(-c4ccc5[nH]c(CCCc6ccc(N(CCCl)CCCl)cc6)nc5c4)nc3c2)CC1
output: false (0)

input: Test call, this molecule: COc1ccc(-c2cc(-c3cc(C)cc(Br)c3O)no2)cc1
output: false (0)

input: Test call, this molecule: COc1ccccc1C(=O)OCC1CCCN2CCCCC12 (configuration not stated)
output: false (0)

input: Test call, this molecule: CCOC(=O)NC(=O)c1cn(CCN2CCNCC2)c(=O)[nH]c1=O
output: false (0)

input: Test call, this molecule: O=C1C(CO)=C[C@@H](O)[C@H]2O[C@@H]12 [EPOXYDON]
output: false (0)
